biological target: SARS-CoV-2 full length spike protein, V483A mutant (SARS-CoV-2, UniProt P0DTC2 14-1273)
Please respond with reported median fluorescence intensity, fold over isotype control for every item in the list.
Answer format: number, then unit.

Item: antibody 296 (antibody, V domains shown) VH: EVQLVESGGGLVQPGGSLRLSCAGSGFTLSNYWMTWVRQAPGKGLEWVANINQDASRKYYGDSVKGRFSVSRDNAKNSLYLQMNSLTAEDTGFYYCVREELPSTPGSTWGQGTLVTVSS VL: QSALTQPASVSGSPGQSITISCTGTSSDIGGYNHVSWYQQHPGKAPKLMIYGVSNRPSGVSDRFSGSKSDNTASLTISGLQAEDEADYYCSSPTSRGNKVFGTGTKVTVL | median fluorescence intensity, fold over isotype control: 1.27 fold over isotype

Item: antibody 264 (antibody, V domains shown) VH: QVHLVESGGGVVQPGRSLRLSCAASGFTLTSYAMHWVRQAPGKGLEWVALISYDGSVKKYAESVKGRITVSGDNSRNTLHLQINTLRADDTAVYYCVRGGVSGPNSFDLWGQGTMVTVSS VL: DVVMTQSPLSLPVTLGQPASISCRSSQSLEYSDGNTYVNWFQQRPGQSPRRLIYQVSNRASGVPDRFSGSGSGTDFTLQISRVEAEDVGIYYCMQGTHWPVTFGQGTKVEIK | median fluorescence intensity, fold over isotype control: 11.1 fold over isotype

Item: antibody 294 (antibody, V domains shown) VH: EVQLVESGGGLVQPGGSLRLSCAASGFTVSSNYMNWVRQAPGKGLEWVSVIYSGGSTYYADSVKGRFTISRDNSKNTLYLQMNSLRAEDTAVYYCARDLGPSGMDVWGQGTTVTVSS VL: DIQMTQSPSSVSASVGDRVTITCRASQGISSWLAWYQQKPGKAPKLLIYAASSLQSGVPSRFSGSGSGTDFTLTISSLQPEDFATYYCQQANSFPLFGGGTKVEIK | median fluorescence intensity, fold over isotype control: 18.4 fold over isotype
